The measured values listed here are drawn from ChEMBL document CHEMBL1143374.

Tested on: Human immunodeficiency virus 1
TEST_SUMMARY: Antiviral activity against HIV1 NL4-3 infected human MT2 cells assessed as viral infection at 10 uM administered 30 mins before viral challenge by luciferase reporter gene activation assay relative to control
Assay type: functional

SMILES_REPR: C[C@H](NC(=O)CCCCCCCCCCNC(=O)[C@]12CCC(C)(C)C[C@H]1C1=CC[C@@H]3[C@@]4(C)C[C@@H](O)[C@H](O)C(C)(C)[C@@H]4CC[C@@]3(C)[C@]1(C)CC2)C(=O)O
Activity, %: 71.7
//
SMILES_REPR: COC(=O)CCCCCNC(=O)[C@]12CCC(C)(C)C[C@H]1C1=CC[C@@H]3[C@@]4(C)C[C@@H](O)[C@H](O)C(C)(C)[C@@H]4CC[C@@]3(C)[C@]1(C)CC2
Activity, %: 69.6
//
SMILES_REPR: CC1(C)CC[C@]2(C(=O)NCCCCCC(=O)NCC(=O)O)CC[C@]3(C)C(=CC[C@@H]4[C@@]5(C)C[C@@H](O)[C@H](O)C(C)(C)[C@@H]5CC[C@]43C)[C@@H]2C1
Activity, %: 125.7
//
SMILES_REPR: CC(C)[C@H](NC(=O)CCCCCNC(=O)[C@]12CCC(C)(C)C[C@H]1C1=CC[C@@H]3[C@@]4(C)C[C@@H](O)[C@H](O)C(C)(C)[C@@H]4CC[C@@]3(C)[C@]1(C)CC2)C(=O)O
Activity, %: 83.8
//
SMILES_REPR: CC1(C)CC[C@]2(C(=O)NCCCCCC(=O)O)CC[C@]3(C)C(=CC[C@@H]4[C@@]5(C)C[C@@H](O)[C@H](O)C(C)(C)[C@@H]5CC[C@]43C)[C@@H]2C1
Activity, %: 146.4

----------
System: Human immunodeficiency virus 1
TEST_SUMMARY: Antiviral activity against HIV1 NL4-3 infected human MT2 cells assessed as viral infection at 25 uM administered 30 mins before viral challenge by luciferase reporter gene activation assay relative to control
Format: functional

SMILES_REPR: C[C@H](NC(=O)CCCCCNC(=O)[C@]12CCC(C)(C)C[C@H]1C1=CC[C@@H]3[C@@]4(C)C[C@@H](O)[C@H](O)C(C)(C)[C@@H]4CC[C@@]3(C)[C@]1(C)CC2)C(=O)NCC(=O)O
Activity: 89.6%
--
SMILES_REPR: C[C@H](NC(=O)[C@]12CCC(C)(C)C[C@H]1C1=CC[C@@H]3[C@@]4(C)C[C@@H](O)[C@H](O)C(C)(C)[C@@H]4CC[C@@]3(C)[C@]1(C)CC2)C(=O)O
Activity: 60.9%
--
SMILES_REPR: CC(C)[C@H](NC(=O)CCCNC(=O)[C@]12CCC(C)(C)C[C@H]1C1=CC[C@@H]3[C@@]4(C)C[C@@H](O)[C@H](O)C(C)(C)[C@@H]4CC[C@@]3(C)[C@]1(C)CC2)C(=O)O
Activity: 130.2%
--
SMILES_REPR: CC1(C)CC[C@]2(C(=O)NCCCCCCCCCCC(=O)O)CC[C@]3(C)C(=CC[C@@H]4[C@@]5(C)C[C@@H](O)[C@H](O)C(C)(C)[C@@H]5CC[C@]43C)[C@@H]2C1
Activity: 21.5%
--
SMILES_REPR: COC(=O)CNC(=O)[C@]12CCC(C)(C)C[C@H]1C1=CC[C@@H]3[C@@]4(C)C[C@@H](O)[C@H](O)C(C)(C)[C@@H]4CC[C@@]3(C)[C@]1(C)CC2
Activity: 56.3%
